PROTOCOL_DESCRIPTION: amyloid nucleation score (Sup35N fusion, yeast selection) (log enrichment); library NNK2; higher = more nucleation; inactive = no reads after selection;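 also: zero at mode of non-aggregating sequences after 7 days selection at 30°C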
ATTRIBUTE_MEASURED: amyloid nucleation score
Just the number, please.

Some substances with known amyloid nucleation score results, for comparison:
Entry TIHRVVWCLL has what amyloid nucleation score? -0.645

// returns reported amyloid nucleation score for input NYEGGCGVNGVMSVPAVRNP 0.082

Recorded amyloid nucleation score of TASHTWSVVCFTWYRCLVND , please. 4.98

# query: amyloid nucleation score of entry QFCCVESLGLLALAWLFTGF 3.62

Would you kindly share the measured amyloid nucleation score for SFVTTKSSFL ? -0.205

Consider the substance shown here: TQDDAHQVRGQCVPSENIGP What is its recorded amyloid nucleation score? 1.96

// query amyloid nucleation score value for entry FYSFLINVPQCPER 0.636

GET /values?readout=amyloid nucleation score&item= LDLGAPPWH 1.03

Could you tell me which amyloid nucleation score is on file for GLPVCYNRVT ? -1.22

Can you share its amyloid nucleation score? I mean this substance: TLLSNTSKLFLLHNYHQWVM 0.062

***
Report amyloid nucleation score for KRHMVSS please. 1.72

// lookup amyloid nucleation score for RNILPLARDSVVFNDCYDSG 0.545

Look up amyloid nucleation score: TDSYPVLDLHPGSYRVH 0.397

Suppose we examine the substance VCSNCNMDVTSYQASCKAYL ; what amyloid nucleation score value has been reported? 0.783

What value of measured amyloid nucleation score is listed for MNACSQGVSQSSDFQL ? 5.08

Entry under review: LLMMRGSRVSNS . Reported amyloid nucleation score? -0.763

For the substance shown here, MQLNNG , give the reported amyloid nucleation score. 0.075
